Test system: C26 colon carcinoma
Test: C26 colon carcinoma implanted in CDF1 mice, drug ip
Type: in vivo
Conditions: drug ip days 1, 5, 9, 0.1 mL vehicle
Numbered stars: 1 amine (or outer) side, 2 acyl side, 3 side chain; on linkers, the order of the positions; unused ones are H or OH. Bridge positions count the residues as written; N and C are the ends. Square brackets hold non-standard residues; d marks the D form. Peptide text beside a SMILES is read from it. I, II: the chains in the order shown. Actinocin(9to1) = Cc1c2oc3c(C)ccc(C(=O)[*:1])c3nc-2c(C(=O)[*:2])c(N)c1=O; NMeV = CN[C@H](C(=O)O)C(C)C; Sar = CNCC(=O)O
measure-name: OD (optimal dose)

compound | observed-value
COc1cccc2c1C(=O)c1c(O)c3c(c(O)c1C2=O)C[C@@](O)(C(=O)CO)C[C@@H]3O[C@H]1C[C@H](N)[C@H](O)[C@H](C)O1 [adriamycin, reference compound] | 2.50 milligrams/milliliter of vehic

Batch request: OD (optimal dose) for each of the following compounds.
1. Cc1c2oc3c(C)c(OCC4CO4)cc(C(=O)NC4C(=O)NC(C(C)C)C(=O)N5CCCC5C(=O)N(C)CC(=O)N(C)C(C(C)C)C(=O)OC4C)c3nc-2c(C(=O)NC2C(=O)NC(C(C)C)C(=O)N3CCCC3C(=O)N(C)CC(=O)N(C)C(C(C)C)C(=O)OC2C)c(N)c1=O (racemic) [3b[(±)-EPA]] [7-(2,3-epoxypropoxy) actinomycin D]
2. Cc1c2oc3c(C)ccc(C(=O)N[C@@H]4C(=O)N[C@H](C(C)C)C(=O)N5CCC[C@H]5C(=O)N(C)CC(=O)N(C)[C@@H](C(C)C)C(=O)O[C@@H]4C)c3nc-2c(C(=O)N[C@@H]2C(=O)N[C@H](C(C)C)C(=O)N3CCC[C@H]3C(=O)N(C)CC(=O)N(C)[C@@H](C(C)C)C(=O)O[C@@H]2C)c(N)c1=O [1b(AMD), Actinomycin D] (I: T[dV]P[Sar][NMeV] / II: T[dV]P[Sar][NMeV]; ester I:1-I:C, II:1-II:C; linker I:N-II:N via Actinocin(9to1))
3. Cc1c2oc3c(C)c(OCC4CO4)cc(C(=O)NC4C(=O)NC(C(C)C)C(=O)N5CCCC5C(=O)N(C)CC(=O)N(C)C(C(C)C)C(=O)OC4C)c3nc-2c(C(=O)NC2C(=O)NC(C(C)C)C(=O)N3CCCC3C(=O)N(C)CC(=O)N(C)C(C(C)C)C(=O)OC2C)c(N)c1=O [(R)-(+)-EPA, 7-(2,3-epoxypropoxy) actinomycin D]
4. Cc1c2oc3c(C)c(OCC4CO4)cc(C(=O)NC4C(=O)NC(C(C)C)C(=O)N5CCCC5C(=O)N(C)CC(=O)N(C)C(C(C)C)C(=O)OC4C)c3nc-2c(C(=O)NC2C(=O)NC(C(C)C)C(=O)N3CCCC3C(=O)N(C)CC(=O)N(C)C(C(C)C)C(=O)OC2C)c(N)c1=O [(S)-(-)-EPA, 7-(2,3-epoxypropoxy) actinomycin D]

1. 0.60 milligrams/milliliter of vehic
2. 0.30 milligrams/milliliter of vehic
3. 0.60 milligrams/milliliter of vehic
4. 0.90 milligrams/milliliter of vehic
